# EC50 values compiled below
- Tested on: Plasmodium falciparum
- EXPERIMENT_SUMMARY: Antiplasmodial activity against asexual blood-stage CQ-sensitive Plasmodium falciparum 3D7 infected in RBC assessed as parasite growth reduction incubated for 72 hrs by SybrGreen dye based analysis
- Format: functional, organism-based
- ASSAY_CONTEXT: 3D7, Erythrocyte
Report as a plain number; the unit nM is understood.

[[record]]
compound = "CCN(CC)CCCC(C)Nc1ccnc2cc(Cl)ccc12 (centres undefined)"
measured_value = 8


Form field: reported EC50 of Oc1c(CN2CCCCC2)cc(CN2CCCCC2)nc1-c1ccccc1
1550

Now give it for CN(C)CCCN(CCCN(C)C)Cc1cccc2ccccc12 too.
5460

Field entry: COCCCNCCCCOc1ccc2ccccc2c1Br
3040

###

- EXPERIMENT_SUMMARY: Cytotoxicity against human HepG2 cells incubated for 72 hrs by MTT assay
- Assay type: toxicity, cell-based
This section presents compounds with their documented CC50 at 72 h values.
Give the value, in units of µM, as a plain number.

Entry Clc1ccc(-c2nc(Nc3ccc(I)cc3)c3ccccc3n2)cc1 has what CC50 at 72 h?
34.8

Similarly, c1ccc2c(CCNC34CC5CC(CC(C5)C3)C4)c[nH]c2c1 ?
53.1

Cc1ccc(Nc2nc(-c3ccccc3Cl)nc3ccccc23)cc1 ?
33.2

And COc1ccc(CN2CCCC(CO)(Cc3ccccc3)C2)c(C)c1C (stereo unspecified) ?
44.1

How about this compound: COc1cc2nc(NCCc3nc(=O)c4c(C)c(C)sc4[nH]3)nc(N)c2cc1OC
13.6

###

- EXPERIMENT_SUMMARY: Cytotoxicity against African green monkey COS-7 cells incubated for 72 hrs by MTT assay
- Type: toxicity, cell-based
- ASSAY_CONTEXT: chlorocebus aethiops
Satisfied if CC50 at 72 h is below 50 µM. Not satisfied if not; exact matches included in Not satisfied.

[[record]]
molecule = "C=CCc1cc(CN2CCC3(CC2)CN(C)CCN3C)ccc1O"
group = "Not satisfied"


Is CC50 at 72 h of CCCOc1c(Br)cc(C2C3=C(CCCC3=O)NC3=C2C(=O)CCC3)cc1OC strictly below 50 µM?
Not satisfied

Follow-up item: c1ccc(C23CN4CCN(CC(C4)C2NCc2ccc4c(c2)OCCO4)C3)cc1 (stereo not given)
Not satisfied

Next molecule up: CCc1ccc(C2CC(=O)C3=C(C2)NC(C)=C(C(=O)OCCc2ccccc2)C3c2ccncc2)cc1 (stereo not given)
Not satisfied

Would you mind doing c1ccc(C23CN4CCN(CC(C4)C2NCc2nc4ccccc4[nH]2)C3)cc1 (stereo not given) as well?
Not satisfied

Again, but for c1ccc2c(CCNC3CC4CCC3C4)c[nH]c2c1 (stereo not given)
Not satisfied

###

- EXPERIMENT_SUMMARY: Cytotoxicity against human HepG2 cells incubated for 72 hrs by MTT assay
- Format: toxicity, cell-based
# CC50 at 72 h values compiled below

[[record]]
molecule = "c1ccc(C23CN4CCN(CC(C4)C2NCc2ccc4c(c2)OCCO4)C3)cc1 (stereo not drawn)"
measured_attribute = "CC50 at 72 h"
measured_value = "> 100 µM"


Can you look up the measured CC50 at 72 h of CN(C)CCCN(CCCN(C)C)Cc1cccc2ccccc12 for me?
> 100 µM

Okay, and c1ccc(C23CN4CCN(CC(C4)C2NCc2nc4ccccc4[nH]2)C3)cc1 (stereo not drawn) ?
> 100 µM

Provenance of the data: ChEMBL document CHEMBL5608229
